Provide the reported kon of each item.
targetOfAssay: T1, human CD3ε/δ-Fc fusion protein (soluble recombinant CD3ε/δ complex) (human, UniProt P04234 22-105)
T1 construct: also called huCD3ε/δ; huCD3; not shown: hinge, CH2, CH3 of human IgG with tag
T1 sequence (chain, as listed by the source mutant, chain 1 of 2): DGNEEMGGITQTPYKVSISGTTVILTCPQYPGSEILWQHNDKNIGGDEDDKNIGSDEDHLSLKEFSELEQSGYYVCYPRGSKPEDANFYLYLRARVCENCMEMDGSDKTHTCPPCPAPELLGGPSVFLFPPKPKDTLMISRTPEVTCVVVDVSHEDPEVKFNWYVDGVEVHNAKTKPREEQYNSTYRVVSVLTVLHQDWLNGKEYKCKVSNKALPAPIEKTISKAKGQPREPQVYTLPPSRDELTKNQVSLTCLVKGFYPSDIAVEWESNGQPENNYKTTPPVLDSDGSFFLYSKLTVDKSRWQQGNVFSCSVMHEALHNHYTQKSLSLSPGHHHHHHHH
T1 sequence (P04234 22-105, stated change not applied, chain 2 of 2): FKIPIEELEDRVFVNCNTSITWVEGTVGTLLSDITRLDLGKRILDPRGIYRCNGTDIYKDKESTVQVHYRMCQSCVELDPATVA
experimentalDetails: SPR Biacore, CD3εδ-Fc captured, Fab analyte
Please give the number followed by its unit.

10E6-G6 Fab (Fab, V domains shown) VH: EVQLVETGGGLVQSGKSLKLTCATSGFTVTNAWMHWVRQSPEKQLEWVAQIKAKSNNYETYYAESVKGRFTISRDDSKSSVYLQMNSLKEEDTAIYYCRGTQYGYNPFDYWGQGVMVTVSS VL: DVVMTQSPVSLSVSLGGQVSISCRSSQSLVHNNGYTYLSWYLQKPGQSPQVFIYKVSNRFSGISDRFSGSGSGTDFTLKISRIEPDDLGVYYCGQGTHYPFTFGSGTKLEIK :: 140000 M⁻¹ s⁻¹

// next item, kon requested
Qu. Which measured kon value corresponds to 20G6-F3 Fab (Fab, V domains shown, also called BDW-20G6-F3) VH: EVQLVETGGSLVQPGKSLKLTCATSGFTFTKAWMHWVRQSPEKQLEWVAQIKDKSNSYATYYAESVKGRFTISRDDSKSTIYLQMNSLKEEDTAIYYCRGVYYALSPFDYWGQGVMVTVSS VL: DVVMTQTPVSLSVSLGGQVSISCRSSQSLVHNNGNTYLSWYLQKPGQSPQSLIYKVSNRFSGFSDRFSGSGSGTDFTLKISRVDPDDLGVYYCGQGTQYPFTFGSGTKLEIKR ?
Ans. 35000 M⁻¹ s⁻¹
